assay.remarks: folding stability dG unfold (combined trypsin and chymotrypsin); higher = more stable
Quick rule: folding stability dG unfold of at least 2 kcal/mol means TRUE, below that means FALSE.

# chain.sequence, assigned.category
measured = [
    ("SAGGSAGGSAGGWNIQVNPDNLKPGKEYRISITHPNGPPIPFEVRLKADGDGDWEFKIESAGGSAGGSAGGS [r10_390_TrROS]", "FALSE"),
    ("SAGGSAGGSGMPRKIASYEEKEEEDGKKTVKVRFPDDGKEITLSPEKAGKITPDSTVPLEELLSAGGSAGGS [r20_3_JUSTAS]", "FALSE"),
]

Prompt: Confirm if folding stability dG unfold reported for the sequence SAGGSAGGSAGSTVKITVKGKTITVPKGAKVKLKNGKTFKAGESLESLSPEEIVKVEKVPSAGGSAGGSAGG [r17_511_TrROS_Hall] is 2 kcal/mol or above.
Completion: FALSE

Prompt: SAGGVLLEFPDGTTVEITVTTSTSTFKDPTTDKTVTKSSTTITVTRKTPDPVVTPVPASEAQRIFDSTSAGG [r13_809_JUSTAS] , same question.
Completion: TRUE

Prompt: SAGPYYVRITVSIYYPGNGAPHQHTIPIKGKTLDDIKDEIRDEIRDHGMKMDPGDEVEIQITDIEVYPGSAG [r5_230_TrROS] , same question.
Completion: FALSE

Prompt: SASPEDTVTTTETEPTTISLGTASIPPDLEVLSVTVTTTTTTTYKVEPPGVPVKLSSTTTTTTTVTLKRTSA [r9_747_JUSTAS] , same question.
Completion: TRUE

Prompt: SAGGSAGGSASPVQRILARLPSGEPFEAVYDPSTGTIDVLGEGKPSTIPAGTPVEVLEVRLESAGGSAGGSA [r18_144_JUSTAS] , same question.
Completion: FALSE
